Test system: HCC-2998 colon
Assay: NCI-60 one-dose screen, 48 h
Conditions: 10 µM
Compounds without any hit were thinned out: in the full panel of roughly 83,000, 20% have a hit. Activity calls are given as the source filed them. How the source made its calls: active means growth percent below 10; inactive means the rest.
Classes used: True (active), False (inactive)

INSERT INTO assay_data (substance_smiles, class_label) VALUES
  ('O=C(CS(=O)(=O)c1oc(-c2ccc(Cl)cc2)nc1S(=O)(=O)c1ccccc1)N1CCCC1', 'False'),
  ('O=C(Nc1nc2ccc([N+](=O)[O-])cc2s1)Nc1cc(Cl)ccc1I', 'True'),
  ('COc1cc(/C=N/NC(=O)c2ccc3nc(-c4ccc(Cl)cc4)[nH]c3c2)cc(OC)c1OC', 'True');

----------
Tested on: MDA-MB-468 breast
Assay: NCI-60 one-dose screen, 48 h
Conditions: 10 µM
This is part of a sample that, as a whole, favours compounds with a hit. Of some 83,000 tested, about 20% had one in any assay. The source made the active and inactive calls. How the source made its calls: active means growth percent below 10; inactive means the rest.
Classes used: class 1 = active, class 0 = inactive

INSERT INTO measurements (compound, class_label) VALUES
  ('COc1cc(/C=C/C(=O)c2ccc(NC(=O)CSc3nnc(-c4c[nH]c5ccccc45)n3-c3ccccc3)cc2)cc(OC)c1OC', 'class 0'),
  ('COc1cc(/C=C/C(=O)c2ccc(C(F)(F)F)cc2)ccc1Oc1nc(Nc2ccc(F)cc2)nc(N(C)C)n1', 'class 0'),
  ('O=C1Nc2cc(-c3ccc(NC(=O)c4cccs4)cc3)ccc2/C1=C/c1ccc[nH]1', 'class 1'),
  ('CN(C)c1cccc2c(S(=O)(=O)Nc3cccc(-c4csc(NC(=O)CCCCCN5CCN(c6cc7c(cc6F)C(=O)N(C6CCC(=O)NC6=O)C7=O)CC5)n4)c3)cccc12 (stereo not given)', 'class 0'),
  ('CS(=O)(=O)Nc1ccc(-c2ccc3c(c2)ncn3-c2ccc(NC(=O)Nc3ccc(Cl)c(C(F)(F)F)c3)cc2)cc1', 'class 1'),
  ('CO[C@H]1CSS[C@@H]1Cn1nc(-c2ccc(Oc3ccccc3)cc2)c2c(N)ncnc21', 'class 1'),
  ('O=C(c1ccc(Cl)cc1)C1[C@H](c2ccccc2Br)[C@@H](c2ccccc2)NC12C(=O)Nc1ccc(Cl)cc12 (stereo not given in full)', 'class 1'),
  ('C=C1CCC2C3(C)COC(c4c(F)cccc4F)OC3CCC2(C)C1C/C=C1/C(=O)OCC1O (stereo not given)', 'class 1'),
  ('Nc1cc(-c2cccc(C(=O)NCc3ccc4c(c3)OCO4)c2)ccn1', 'class 0'),
  ('CC1(c2ccccc2)NC(=O)N(CC(=O)Nc2ccc(C(=O)/C=C/c3ccc(Br)cc3)cc2)C1=O (stereo not given)', 'class 1'),
  ('COc1cccc(-c2ccnc(/N=C(\N)Nc3ccc(S(=O)(=O)Nc4nc(C)cc(C)n4)cc3)n2)c1', 'class 0'),
  ('COc1ccc(OC)c(-c2cc(-c3c[nH]c4ccccc34)nc(N)c2C#N)c1', 'class 1'),
  ('COc1ccc2[nH]cc(/C=N/Nc3cccc(Cl)n3)c2c1', 'class 1'),
  ('CC(=C(c1ccc(OCCCN(C)C)cc1)c1ccc(OCCCN(C)C)cc1)c1ccccc1', 'class 1'),
  ('COc1ccc(-c2ccc(SCC(=O)Nc3ccc(C#N)cc3)nn2)cc1', 'class 0'),
  ('O=C(CSc1nnc(-c2c[nH]c3ccccc23)n1-c1ccccc1)Nc1ccc(C(=O)/C=C/c2ccc(Cl)cc2)cc1', 'class 0'),
  ('COc1ccc(-c2c(N)c(=O)n(C)c3ccccc23)cc1', 'class 0'),
  ('O=C(CSc1ccc(-c2ccc(Cl)cc2)nn1)Nc1ccc(Cl)c(C(F)(F)F)c1', 'class 0'),
  ('Cc1ccc(-c2nc(Nc3ccccc3C(=O)O)c3ccccc3n2)cc1', 'class 1'),
  ('COc1ccc([C@H]2C(C(=O)c3ccc(Cl)cc3)C3(N[C@@H]2c2ccccc2)C(=O)Nc2ccc(Cl)cc23)cc1 (stereo not given in full)', 'class 1'),
  ('O=C1Nc2ccc(F)cc2/C1=C/c1cccc(OCc2ccccn2)c1', 'class 1'),
  ('CC1(c2ccccc2)NC(=O)N(CC(=O)Nc2ccc(C(=O)/C=C/C=C/c3ccccc3)cc2)C1=O (stereo not given)', 'class 1'),
  ('O=C(Cc1ccc2c(c1)CN(C1CCC(=O)NC1=O)C2=O)NCc1cccc2ccccc12 (stereo not given)', 'class 1'),
  ('O=C1CCC(N2Cc3cc(CC(=O)Nc4ccc(N5CCCCC5)cc4)ccc3C2=O)C(=O)N1 (stereo not given)', 'class 1'),
  ('COc1cc(Cn2c(C(F)(F)F)cc3c(Cl)ncnc32)ccn1', 'class 1'),
  ('Cn1cc(-c2cc(N)n3nc(-c4c[nH]c5ccc(Br)cc45)cc3n2)c2cccnc21', 'class 1'),
  ('CO[C@@H]1CSS[C@H]1Cn1nc(-c2ccc(Oc3ccccc3)cc2)c2c(N)ncnc21', 'class 0'),
  ('C=C1CCC2C3(C)COC(c4c(F)cccc4F)OC3CCC2(C)C1CC(O)C1=CCOC1=O (stereo not given)', 'class 0'),
  ('COc1nccnc1NS(=O)(=O)c1ccc(NC2=C(Cl)C(=O)c3nc(C)ccc3C2=O)cc1', 'class 1'),
  ('CC(=O)c1cc(C(=O)c2ccc3c(c2)NC(=O)CO3)n2ccc3ccccc3c12', 'class 0'),
  ('CCCCSc1nc(Nc2ccc(/C(C)=N/NC(N)=S)cc2)c(C#N)c(-c2ccc(F)cc2)n1', 'class 1'),
  ('Cc1ccc(/C(CSc2nnc(-c3c[nH]c4ccccc34)n2-c2ccccc2)=N/O)cc1', 'class 1'),
  ('O=C(CNc1nc(-c2ccccc2)cs1)Nc1cccc(Cl)c1', 'class 0'),
  ('CC(C)(C)Nc1nc2cc(Cl)c(Cl)cc2nc1S(C)(=O)=O', 'class 1'),
  ('CC(=O)Nc1ccc(-c2cn(-c3cccc(C(=O)Nc4ccc(F)c(C(F)(F)F)c4)c3)nn2)cn1', 'class 0');
